Test system: KRAS PDC multicell spheroid viability
Test: Anticancer human tumor 521955-158-R6-J3-PDC patient-derived pancreatic carcinoma cell line growth inhibition [KRAS2]
Conditions: second compound 0.316 µM; first compound 0.1 µM; stronger effect = lower value

>  <MOLECULE>
CC1OCC2(CCN(c3cnc(Sc4ccnc(N)c4Cl)c(N)n3)CC2)C1N (stereo not given) + CNCc1ccccc1-c1csc(C(C)Nc2nc(C)nc3cc(OC)c(OC)cc23)c1

>  <MEASURED TARGET>
KRAS PDC multicell spheroid viability

>  <viability, T/C>
80.3%

$$$$
>  <MOLECULE>
CN(C)C/C=C/C(=O)Nc1cc2c(Nc3ccc(F)c(Cl)c3)ncnc2cc1O[C@H]1CCOC1 + CC1OCC2(CCN(c3cnc(Sc4ccnc(N)c4Cl)c(N)n3)CC2)C1N

>  <MEASURED TARGET>
KRAS PDC multicell spheroid viability

>  <viability, T/C>
48.3%

$$$$
>  <MOLECULE>
CC(C)n1nc(-c2ccc3oc(N)nc3c2)c2c(N)ncnc21 + C=CC(=O)N1CCN(c2nc(OCC3CCCN3C)nc3c2CCN(c2cccc4cccc(C)c24)C3)CC1CC#N

>  <MEASURED TARGET>
KRAS PDC multicell spheroid viability

>  <viability, T/C>
45.9%

$$$$
>  <MOLECULE>
COc1cc2nccc(Oc3ccc(NC(=O)C4(C(=O)Nc5ccc(F)cc5)CC4)cc3)c2cc1OC + COc1cc2nc(C)nc(NC(C)c3cc(N)cc(C(F)(F)F)c3)c2cc1OC1CCOC1

>  <MEASURED TARGET>
KRAS PDC multicell spheroid viability

>  <viability, T/C>
97.2%

$$$$
>  <MOLECULE>
CC1(C)CCC(CN2CCN(c3ccc(C(=O)NS(=O)(=O)c4ccc(NCC5CCOCC5)c([N+](=O)[O-])c4)c(Oc4cnc5[nH]ccc5c4)c3)CC2)=C(c2ccc(Cl)cc2)C1 + C=CC(=O)N1CCN(c2nc(OCC3CCCN3C)nc3c2CCN(c2cccc4cccc(C)c24)C3)CC1CC#N

>  <MEASURED TARGET>
KRAS PDC multicell spheroid viability

>  <viability, T/C>
95.8%

$$$$
>  <MOLECULE>
Cn1ncnc1[C@H]1c2n[nH]c(=O)c3cc(F)cc(c23)N[C@@H]1c1ccc(F)cc1 + COc1cc2nc(C)nc(NC(C)c3cc(N)cc(C(F)(F)F)c3)c2cc1OC1CCOC1

>  <MEASURED TARGET>
KRAS PDC multicell spheroid viability

>  <viability, T/C>
84.2%

$$$$
>  <MOLECULE>
CC(C)n1nc(-c2ccc3oc(N)nc3c2)c2c(N)ncnc21 + C=CC(=O)N1CCN(c2nc(=O)n(-c3c(C)ccnc3C(C)C)c3nc(-c4c(O)cccc4F)c(F)cc23)C(C)C1

>  <MEASURED TARGET>
KRAS PDC multicell spheroid viability

>  <viability, T/C>
53.3%

$$$$
>  <MOLECULE>
CC(=O)OC12COC1CC(O)C1(C)C(=O)C(O)C3=C(C)C(OC(=O)C(O)C(NC(=O)OC(C)(C)C)c4ccccc4)CC(O)(C(OC(=O)c4ccccc4)C21)C3(C)C (stereo not given) + COc1cc2nc(C)nc(NC(C)c3cc(N)cc(C(F)(F)F)c3)c2cc1OC1CCOC1

>  <MEASURED TARGET>
KRAS PDC multicell spheroid viability

>  <viability, T/C>
70.2%

$$$$
>  <MOLECULE>
CC1OCC2(CCN(c3cnc(Sc4ccnc(N)c4Cl)c(N)n3)CC2)C1N (stereo not given) + COc1cc2nc(C)nc(NC(C)c3cc(N)cc(C(F)(F)F)c3)c2cc1OC1CCOC1

>  <MEASURED TARGET>
KRAS PDC multicell spheroid viability

>  <viability, T/C>
86.1%

$$$$
>  <MOLECULE>
CCN1CCN(Cc2ccc(Nc3ncc(F)c(-c4cc(F)c5nc(C)n(C(C)C)c5c4)n3)nc2)CC1 + C=CC(=O)N1CCN(c2nc(=O)n(-c3c(C)ccnc3C(C)C)c3nc(-c4c(O)cccc4F)c(F)cc23)C(C)C1

>  <MEASURED TARGET>
KRAS PDC multicell spheroid viability

>  <viability, T/C>
86%

$$$$

----------
System: KRAS PDC multicell spheroid viability
Test: Anticancer human tumor 521955-158-R6-J3-PDC cell line growth inhibition [KRAS2];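 note: drug exposure lasted seven days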;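 for viability, T/C: 100% = DMSO vehicle wells and lower means fewer viable cells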
Details: second compound 0.0316 µM; first compound 0.316 µM; stronger effect = lower value
Please respond with rule met when measured viability, T/C is strictly beneath 80%, and with rule not met in all other cases.

>  <MOLECULE>
CC1OCC2(CCN(c3cnc(Sc4ccnc(N)c4Cl)c(N)n3)CC2)C1N (stereo not given) + C=CC(=O)N1CCN(c2nc(OCC3CCCN3C)nc3c2CCN(c2cccc4cccc(C)c24)C3)CC1CC#N

>  <CLASS NAME>
rule not met

$$$$
>  <MOLECULE>
CCN1CCN(Cc2ccc(Nc3ncc(F)c(-c4cc(F)c5nc(C)n(C(C)C)c5c4)n3)nc2)CC1 + C=CC(=O)N1CCN(c2nc(OCC3CCCN3C)nc3c2CCN(c2cccc4cccc(C)c24)C3)CC1CC#N

>  <CLASS NAME>
rule not met

$$$$
>  <MOLECULE>
COC(=O)c1ccc2c(C(=Nc3ccc(N(C)C(=O)CN4CCN(C)CC4)cc3)c3ccccc3)c(O)[nH]c2c1 + C=CC(=O)N1CCN(c2nc(OCC3CCCN3C)nc3c2CCN(c2cccc4cccc(C)c24)C3)CC1CC#N

>  <CLASS NAME>
rule not met

$$$$
>  <MOLECULE>
CCNC(=O)CC1N=C(c2ccc(Cl)cc2)c2cc(OC)ccc2-n2c(C)nnc21 (stereo not given) + C=CC(=O)N1CCN(c2nc(OCC3CCCN3C)nc3c2CCN(c2cccc4cccc(C)c24)C3)CC1CC#N

>  <CLASS NAME>
rule met

$$$$

----------
System: KRAS PDC multicell spheroid viability
Test: Anticancer human tumor 521955-158-R6-J3-PDC cell line growth inhibition [KRAS2];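 note: drug exposure lasted seven days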;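 for viability, T/C: 100% = DMSO vehicle wells and lower means fewer viable cells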
Details: second compound 1 µM; first compound 1 µM; stronger effect = lower value

>  <COMPOUND>
O=C(c1cc(Cc2n[nH]c(=O)c3ccccc23)ccc1F)N1CCN(C(=O)C2CC2)CC1 + COc1cc2nc(C)nc(NC(C)c3cc(N)cc(C(F)(F)F)c3)c2cc1OC1CCOC1

>  <MEASURED TARGET>
KRAS PDC multicell spheroid viability

>  <UNITS SYMBOL>
%

>  <viability, T/C>
70.8

$$$$
>  <COMPOUND>
COC(=O)c1ccc2c(C(=Nc3ccc(N(C)C(=O)CN4CCN(C)CC4)cc3)c3ccccc3)c(O)[nH]c2c1 + COc1cc2nc(C)nc(NC(C)c3cc(N)cc(C(F)(F)F)c3)c2cc1OC1CCOC1

>  <MEASURED TARGET>
KRAS PDC multicell spheroid viability

>  <UNITS SYMBOL>
%

>  <viability, T/C>
115

$$$$
>  <COMPOUND>
COc1cc(Nc2ncc3c(n2)-c2ccc(Cl)cc2C(c2c(F)cccc2OC)=NC3)ccc1C(=O)O + COc1cc2nc(C)nc(NC(C)c3cc(N)cc(C(F)(F)F)c3)c2cc1OC1CCOC1

>  <MEASURED TARGET>
KRAS PDC multicell spheroid viability

>  <UNITS SYMBOL>
%

>  <viability, T/C>
89.3

$$$$
>  <COMPOUND>
COc1cc2nccc(Oc3ccc(NC(=O)C4(C(=O)Nc5ccc(F)cc5)CC4)cc3)c2cc1OC + C=CC(=O)N1CCN(c2nc(=O)n(-c3c(C)ccnc3C(C)C)c3nc(-c4c(O)cccc4F)c(F)cc23)C(C)C1

>  <MEASURED TARGET>
KRAS PDC multicell spheroid viability

>  <UNITS SYMBOL>
%

>  <viability, T/C>
104

$$$$
>  <COMPOUND>
CC1(C)CCC(CN2CCN(c3ccc(C(=O)NS(=O)(=O)c4ccc(NCC5CCOCC5)c([N+](=O)[O-])c4)c(Oc4cnc5[nH]ccc5c4)c3)CC2)=C(c2ccc(Cl)cc2)C1 + C=CC(=O)N1CCN(c2nc(OCC3CCCN3C)nc3c2CCN(c2cccc4cccc(C)c24)C3)CC1CC#N

>  <MEASURED TARGET>
KRAS PDC multicell spheroid viability

>  <UNITS SYMBOL>
%

>  <viability, T/C>
76.9

$$$$

----------
System: KRAS PDC multicell spheroid viability
Test: Anticancer human tumor 521955-158-R6-J3-PDC cell line growth inhibition [KRAS2];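 note: drug exposure lasted seven days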
Details: curve of first compound; second compound 10 µM
READOUT TYPE: IC50

>  <COMPOUND>
CC(=O)OC12COC1CC(O)C1(C)C(=O)C(O)C3=C(C)C(OC(=O)C(O)C(NC(=O)OC(C)(C)C)c4ccccc4)CC(O)(C(OC(=O)c4ccccc4)C21)C3(C)C (centres undefined) + CNCc1ccccc1-c1csc(C(C)Nc2nc(C)nc3cc(OC)c(OC)cc23)c1

>  <READING>
< 0.01 µM

$$$$
>  <COMPOUND>
CC(=O)OC12COC1CC(O)C1(C)C(=O)C(O)C3=C(C)C(OC(=O)C(O)C(NC(=O)OC(C)(C)C)c4ccccc4)CC(O)(C(OC(=O)c4ccccc4)C21)C3(C)C (centres undefined) + C=CC(=O)N1CCN(c2nc(=O)n(-c3c(C)ccnc3C(C)C)c3nc(-c4c(O)cccc4F)c(F)cc23)C(C)C1

>  <READING>
> 3.16 µM

$$$$
>  <COMPOUND>
COC(=O)c1ccc2c(C(=Nc3ccc(N(C)C(=O)CN4CCN(C)CC4)cc3)c3ccccc3)c(O)[nH]c2c1 + CNCc1ccccc1-c1csc(C(C)Nc2nc(C)nc3cc(OC)c(OC)cc23)c1

>  <READING>
< 0.0316 µM

$$$$
>  <COMPOUND>
CCN1CCN(Cc2ccc(Nc3ncc(F)c(-c4cc(F)c5nc(C)n(C(C)C)c5c4)n3)nc2)CC1 + C=CC(=O)N1CCN(c2nc(=O)n(-c3c(C)ccnc3C(C)C)c3nc(-c4c(O)cccc4F)c(F)cc23)C(C)C1

>  <READING>
> 1 µM

$$$$
